Cited source: patent US20200361992A1

- Assayed Target: T1, human ferroportin (SLC40A1) fused with GFP, stably expressed in HEK293 cells (human, UniProt Q9NP59 1-571)
- T1 sequence (looked up): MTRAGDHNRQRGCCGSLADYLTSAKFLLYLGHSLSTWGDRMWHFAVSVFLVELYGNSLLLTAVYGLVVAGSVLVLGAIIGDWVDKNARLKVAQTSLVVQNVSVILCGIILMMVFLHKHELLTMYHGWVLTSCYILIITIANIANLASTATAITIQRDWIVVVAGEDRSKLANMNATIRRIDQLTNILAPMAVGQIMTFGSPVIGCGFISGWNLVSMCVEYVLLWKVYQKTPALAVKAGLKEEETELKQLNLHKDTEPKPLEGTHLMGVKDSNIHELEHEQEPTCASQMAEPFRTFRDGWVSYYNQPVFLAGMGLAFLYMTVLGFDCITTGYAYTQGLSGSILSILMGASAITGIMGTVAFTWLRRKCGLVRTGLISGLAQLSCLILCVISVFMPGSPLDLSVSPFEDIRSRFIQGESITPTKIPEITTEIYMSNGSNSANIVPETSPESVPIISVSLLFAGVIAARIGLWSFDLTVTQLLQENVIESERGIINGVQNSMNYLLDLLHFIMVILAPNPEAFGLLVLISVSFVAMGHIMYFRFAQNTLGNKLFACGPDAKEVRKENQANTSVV
- Measurement Notes: cell-based or functional assay
Starred links: 1 amine or outer side, 2 acyl side, 3 side chain; linkers in the order of their positions; H or OH if unused. Positions of bridges follow the written chain, without caps; N, C: chain ends. Non-standard residues stand in square brackets, D forms with d. Groups on a side chain read outwards from the residue. Primed or numbered codes have the meaning given here. *: point of attachment. PEG12 = NCCOCCOCCOCCOCCOCCOCCOCCOCCOCCOCCOCCOCCC(=O)O; γGlu = O=C(O)[C@H](CCC(=O)[*:2])N[*:1]; Palmitoyl = CCCCCCCCCCCCCCCC(=O)*; Isovaleryl = CC(C)CC(=O)*; PEG2′ = not defined here
Experimental Endpoint: FPN IC50 (nM)

P = DTHXPCIKXKKC (Isovaleric acid-DTH-[Dpa]-PCI-[(D)Lys]-[Dpa]-[Lys(Peg11-Palm)]-[(D)Lys]-C-NH2) [Compd ID 131]
Q = Isovaleryl-DTHFPCIKWK([PEG12-Palmitoyl])C-NH2 (disulfide 6-11 (inferred)) [Compd ID 20]
R = Isovaleryl-DTHFPCI[dK]FK([PEG2′-Palmitoyl])C-NH2 (disulfide 6-11 (inferred)) [Compd ID 23]
S = DTHXPCIKFKKC (Isovaleric acid-DTH-[a-MePhe]-PCI-[(D)Lys]-F-[Lys(Peg11-Palm)]-[(D)Lys]-C-NH2) [Compd ID 128]
T = DTHXPCIKFKXC (Isovaleric acid-DTH-[Dpa]-PCI-[(D)Lys]-F-[Lys(Peg11-Palm)]-[b-hLys]-C-NH2) [Compd ID 138]
# order the binders above by FPN IC50, highest value first Order the labels as requested and give them as your answer.
S, R, T, P, Q

1 = DTHXPXIKFKXX (Isovaleric acid-DTH-[Dpa]-P-[Hcy]-I-[(D)Lys]-F-[Lys(Peg11-Palm)]-[Dap]-[Hcy]-NH2) [Compd ID 142]
2 = Isovaleryl-DTHFPCIQFK([PEG12-Palmitoyl])C-NH2 (disulfide 6-11 (inferred)) [Compd ID 13]
3 = Isovaleryl-DTHFPCI[dK]FK([γGlu-Palmitoyl])C-NH2 (disulfide 6-11 (inferred)) [Compd ID 27]
4 = DTHXPCIKXKKC (Isovaleric acid-DTH-[Dpa]-PCI-[(D)Lys]-[b-hPhe]-[Lys-Peg11]-[(D)Lys]-C-NH2) [Compd ID 154]
Sort the 4 binders by FPN IC50; largest first, smallest last. Order the labels as requested and give them as your answer.
4, 3, 1, 2
(4: 404 nM, 3: 35 nM, 1: 12 nM, 2: 4 nM)

A = DTHFPCIKXKKC (Isovaleric acid-DTHFPCI-[(D)Lys]-[Nal]-Lys[PEG11-Palm]-K-[Cys]-NH2) [Compd ID 102]
B = Isovaleryl-DTHFPCI[dK]FK([PEG12-Palmitoyl])KC[dK]-NH2 (disulfide 6-12 (inferred)) [Compd ID 83]
C = DTHFPXIKFKKX (Isovaleric acid-DTHFP-[a-MeCys]-I-[(D)Lys]-F-[Lys(Peg11-Palm)]-K-[a-MeCys]-NH2) [Compd ID 115]
Sort the 3 binders by FPN IC50; largest first, smallest last. Order the labels as requested and give them as your answer.
B, A, C
